Target: CR518 (chemotactile receptor 518) (Octopus bimaculoides, UniProt A0A0L8FVQ9)
Sequence (A0A0L8FVQ9 21-399): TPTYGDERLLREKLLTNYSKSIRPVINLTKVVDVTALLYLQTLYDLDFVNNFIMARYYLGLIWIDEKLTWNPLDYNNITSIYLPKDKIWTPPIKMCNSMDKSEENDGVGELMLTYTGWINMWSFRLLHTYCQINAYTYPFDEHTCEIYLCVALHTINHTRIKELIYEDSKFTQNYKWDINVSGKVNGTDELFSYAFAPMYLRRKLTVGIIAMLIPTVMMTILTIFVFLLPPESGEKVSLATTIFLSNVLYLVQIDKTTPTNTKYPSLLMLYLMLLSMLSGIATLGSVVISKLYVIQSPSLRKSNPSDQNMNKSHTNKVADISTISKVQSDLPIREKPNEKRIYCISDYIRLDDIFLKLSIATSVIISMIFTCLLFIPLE
Assay: whole-cell patch clamp dose-response
Format: cell-based
Reported pEC50 values for a set of compounds
Kindly note that pEC50 refers to -log10 of the concentration in mol/L and answer with the value alone.

Inquiry: Return the recorded pEC50 value; entry: C=C(C)[C@@H]1CCC2=CC(=O)C[C@@H](C)[C@]2(C)C1
Reply text: 4.61

Inquiry: Return the recorded pEC50 value; entry: Cc1ccc(C(C)C)cc1O
Reply text: 3.69

Cited source for all entries: paper PMC7605239
